- target-entity: Sentrin-specific protease 7 (Homo sapiens) (UniProt Q9BQF6)
- protocol-text: SENP7 protease inhibitors, primary screen, biochemical, luminescence, uHTS (AID 434973);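 also: plate controls were DMSO with enzyme for no effect and no enzyme buffer wells for full effect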
- condition-info: recombinant SENP7, Z-RLRGG-aminoluciferin luminescence, 40 min; at 5 µM; hits give high values
The campaign covered roughly 330,000 compounds. About 4,900 (1.5%) were called active. Many of the other results were omitted from the sample, so actives are more common in it than they were.
reported-metric: inhibition (%)
The reply should be a number in %, with the unit left off.

compound	inhibition (%)
CN(C)c1ccc(-c2nnc(-c3cccnc3)o2)cc1	8.14
Cn1nc(-c2ccccc2)c(-c2nc(-c3ccc(Cl)cc3)no2)c1Cl	1.67
Nc1ccc(-c2nnc(-c3ccccc3)o2)cc1	49.9
COCCn1c(SC(C)C(=O)NC2CC2)nnc1-c1cccc(C)c1 (configuration not stated)	1.39
COc1ccccc1N1CCN(C(=O)C(=O)N/N=C/c2ccccc2F)CC1	-1.74

# evaluate next
[ask] Which inhibition is listed for Brc1ccc(-c2noc(-c3ccccc3)n2)o1 ?
[reply] 88.5

====

- target-entity: Sentrin-specific protease 7 (Homo sapiens)
- protocol-text: SENP7 protease inhibitors, primary screen, biochemical, luminescence, uHTS (AID 434973);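 also: plate controls were DMSO with enzyme for no effect and no enzyme buffer wells for full effect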
- condition-info: recombinant SENP7, Z-RLRGG-aminoluciferin luminescence, 40 min; at 5 µM; hits give high values
The campaign covered roughly 330,000 compounds. About 4,900 (1.5%) were called active. The sample as a whole holds a higher share of actives than the screen did.
reported-metric: inhibition (%)
The reply should be a number in %, with the unit left off.

compound	target-entity	observed
COc1ccc(Br)cc1C(=O)NC(=S)Nc1cc(-c2nc3ccccc3[nH]2)ccc1C	Sentrin-specific protease 7 (Homo sapiens)	2.43
O=C(COC(=O)c1ccc(Br)o1)NC12CC3CC(CC(C3)C1)C2	Sentrin-specific protease 7 (Homo sapiens)	7.39
Cc1ccccc1N1CC(c2nc3ccccc3[nH]2)CC1=O (configuration not stated)	Sentrin-specific protease 7 (Homo sapiens)	4.87
CCC1C(=O)c2ccccc2N(C)C1=O (configuration not stated)	Sentrin-specific protease 7 (Homo sapiens)	-6.31
COc1ccc(S(=O)(=O)N2CCN(c3cnccn3)CC2)cc1	Sentrin-specific protease 7 (Homo sapiens)	4.46

[ask] Which inhibition is listed for O=c1ccc2cc(S(=O)(=O)NCCCc3ccccc3)ccc2[nH]1 ?
[reply] 4.36

[ask] For O=C(c1ccccc1F)N(Cc1ccccc1)Cc1ccccc1 then?
[reply] -9.2

[ask] For O=C(/C=C/c1ccco1)Nc1ccc(Oc2ccccc2)cc1 then?
[reply] 63.9

====

- target-entity: Sentrin-specific protease 7 (Homo sapiens) (UniProt Q9BQF6)
- protocol-text: SENP7 protease inhibitors, primary screen, biochemical, luminescence, uHTS (AID 434973);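 also: plate controls were DMSO with enzyme for no effect and no enzyme buffer wells for full effect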
- condition-info: recombinant SENP7, Z-RLRGG-aminoluciferin luminescence, 40 min; at 5 µM
In all, about 330,000 compounds went through this assay and about 4,900 (1.5%) were called active.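 How the source made its calls: active means inhibition above about 50% at the single test dose (limit read from the data); inactive means the rest.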 The list comes from a sample in which actives are over-represented; it also holds close analogues and randomly drawn compounds.
Respond with a class label; see active, inactive

For orientation, consider the following solved cases.
compound	group
Cc1nonc1C(=O)N/N=C/c1ccc(O)cc1	active
CC(=O)Nc1ccccc1NC(=O)c1cc(C)cc(C)c1	inactive
CCc1nnc(NC(=O)CSCc2cc(=O)n3cc(C)sc3n2)s1	inactive

[ask] What call does the record list for Cc1cccc(-c2noc(-c3ccc(F)cc3)n2)c1 ?
[reply] active

[ask] For CS(=O)(=O)N1CCCC(C(=O)N2CCOCC2)C1 (stereo unspecified) then?
[reply] inactive

[ask] For CC(C)c1c(C(=O)N/N=C/c2ccc(-c3ccccc3)cc2)nnn1-c1nonc1N then?
[reply] inactive
